Assign normalized growth to each entry below.
# ASSAY_DETAILS: chemical genetic growth profiling, strain panel (AID 1159580);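 note: tested at 20 µM; growth read once vehicle control cultures reached saturation at 30 °C; 1 = growth at the plate median or of vehicle wells; lower values mean less growth of the strain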
# PARTICULARS: S. cerevisiae deletion strains, growth OD, locus YJL187C, strain SWE1 (second series), hits give low values
The campaign covered roughly 5,500 compounds. About 2,000 (36%) were called active. Not shown: some 18% with an inconclusive outcome. The list shows a part of the results.
Give bare numbers.

Here is how some molecules turned out for normalized growth.
C[C@]12CCC3C(CC[C@H]4C[C@@H](Cl)CC[C@]34C)C1CCC2=O (stereo partly specified) : 0.993
CC(=O)N[C@@H](CC(=O)O)C(=O)O : 1.01

Below is a list of molecules. For each, state its recorded normalized growth.
1. Cn1cnc([N+](=O)[O-])c1Sc1ncnc2nc[nH]c12
2. O=C1OC(=O)C2C3CCC(O3)C12 (stereo unspecified)
3. CN1CCN(C(c2ccccc2)c2ccccc2)CC1
4. O=c1ccc2cc(O[C@@H]3O[C@H](CO)[C@@H](O)[C@H](O)[C@H]3O)c(O)cc2o1

(A)
0.997
1.01
0.999
1.01

----------
Assign normalized growth to each entry below.
# ASSAY_DETAILS: chemical genetic growth profiling, strain panel (AID 1159580);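 note: tested at 20 µM; growth read once vehicle control cultures reached saturation at 30 °C; 1 = growth at the plate median or of vehicle wells; lower values mean less growth of the strain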
# PARTICULARS: S. cerevisiae deletion strains, growth OD, locus YNL322C, strain KRE1, hits give low values
About 2,000 (36%) of roughly 5,500 compounds were called active. Roughly 18% stayed inconclusive and do not appear here. The list shows a part of the results.
Give bare numbers.

Here is how some compounds turned out for normalized growth.
N#C/C(=C\Nc1ccc2c(c1)OCCO2)S(=O)(=O)c1ccc(C(F)(F)F)cn1 : 0.996
COc1ccc(-n2c(SCc3ccc(Br)cc3)nnc2-c2ccco2)cc1 : 0.984
COc1cc(O)c(C(=O)O)c(O)c1 : 0.99
O=C(CSc1nnc(-c2ccco2)n1-c1ccc2c(c1)OCCO2)c1cccc(F)c1 : 0.989
COc1ccc(/C(C#N)=C/c2ccc(OC)c(OC)c2)cc1 : 0.994

Below is a list of compounds. For each, state its recorded normalized growth.
1. Cc1c(N(C)CS(=O)(=O)O)c(=O)n(-c2ccccc2)n1C
2. COc1cc(OC)cc(OC)c1
3. COc1ccc2[nH]cc(CCNC(C)=O)c2c1

(A)
[0.998, 1.01, 1]

----------
# ASSAY_DETAILS: chemical genetic growth profiling, strain panel (AID 1159580);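 note: tested at 20 µM; growth read once vehicle control cultures reached saturation at 30 °C; 1 = growth at the plate median or of vehicle wells; lower values mean less growth of the strain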
# PARTICULARS: S. cerevisiae deletion strains, growth OD, locus YDL185W, strain tfp1, hits give low values
The whole screen tested about 5,500 compounds, of which about 2,000 (36%) were called active. Roughly 18% stayed inconclusive and do not appear here. The list shows a part of the results.
METRIC_NAME: normalized growth

Here is how some compounds turned out for normalized growth.
C[C@]12C=CC(=O)C=C1CCC1C2C(=O)C[C@@]2(C)C1CC[C@]2(O)C(=O)CO (stereo partly specified) : 0.983 (inactive)
Cc1ncc([N+](=O)[O-])n1CCO : 0.983 (inactive)
CN(C)c1nc(N(C)C)nc(N(C)C)n1 : 1.02 (inactive)
O=C1c2ccc(O)c(O)c2C(=O)c2c(O)ccc(O)c21 : 1.01 (inactive)
CSCCC(NC=O)C(=O)NC(CC(C)C)C(=O)NC(Cc1ccccc1)C(=O)O (stereo unspecified) : 0.994 (inactive)

Below is a list of compounds. For each, state its recorded normalized growth.
1. COC(=O)C[C@H]1C(C)(C)[C@@H](OC(C)=O)[C@@H]2CC3C4CC(=O)O[C@@H](c5ccoc5)[C@]4(C)CCC3[C@@]1(C)C2=O (stereo partly specified)
2. Cn1cnc([N+](=O)[O-])c1Sc1ncnc2nc[nH]c12

(A)
["1.02 (inactive)", "1 (inactive)"]

Below is a list of compounds. For each, state its recorded normalized growth.
1. Nc1ncnc2nc[nH]c12
2. COc1cc2c(cc1-c1coc3c4c(c(OC)cc3c1=O)OC(C)(C)C=C4)OCO2
3. C[C@H]1C(=O)O[C@@H]2CCN3CC=C(COC(=O)[C@](C)(O)[C@]1(C)O)[C@H]23
4. CCOc1ccc(Cc2nccc3cc(OCC)c(OCC)cc23)cc1OCC

(A)
1: 1.01 (inactive); 2: 1.01 (inactive); 3: 0.984 (inactive); 4: 0.994 (inactive)

Below is a list of compounds. For each, state its recorded normalized growth.
1. NCCS
2. CC1(C)S[C@@H]2[C@H](NC(=O)COc3ccccc3)C(=O)N2[C@H]1C(=O)O
3. COc1ccc(Cc2nccc3cc(OC)c(OC)cc23)cc1OC
4. C[C@]12CCC3C(CC[C@H]4C[C@@H](Cl)CC[C@]34C)C1CCC2=O (stereo partly specified)
5. COc1ccc2c(=O)c(-c3cc4c(cc3OC)OCO4)coc2c1

(A)
1. 1 (inactive)
2. 1.01 (inactive)
3. 0.992 (inactive)
4. 1.02 (inactive)
5. 1.02 (inactive)

Below is a list of compounds. For each, state its recorded normalized growth.
1. COc1cc2ccc(=O)oc2cc1O
2. O=c1c(-c2ccc3c(c2)OCO3)coc2cc(O)ccc12
3. O=c1ccc2cc(O[C@@H]3O[C@H](CO)[C@@H](O)[C@H](O)[C@H]3O)c(O)cc2o1
4. COc1ccc2c(=O)c(CC(=O)O)coc2c1
5. COc1cc(OC)c2c(c1Cl)OC1(C2=O)C(O)=CC(=O)CC1C (stereo unspecified)

(A)
1. 0.974 (inactive)
2. 0.981 (inactive)
3. 1 (inactive)
4. 0.984 (inactive)
5. 0.981 (inactive)

Each recorded value in this set is attributed to PubChem BioAssay AID1159580.
